biological target: PKCa (Homo sapiens, UniProt P17252)
measurement_name: IC50

For the compound CC(=O)Nc1ccc(C(=O)Nc2sc(Nc3ccccc3)nc2C(N)=O)cc1 , the measured IC50 on PKCa (Homo sapiens, UniProt P17252) was > 300 nM

* * *

molecular target: PYK2 (Homo sapiens)
Sequence (Q14289 whole entry): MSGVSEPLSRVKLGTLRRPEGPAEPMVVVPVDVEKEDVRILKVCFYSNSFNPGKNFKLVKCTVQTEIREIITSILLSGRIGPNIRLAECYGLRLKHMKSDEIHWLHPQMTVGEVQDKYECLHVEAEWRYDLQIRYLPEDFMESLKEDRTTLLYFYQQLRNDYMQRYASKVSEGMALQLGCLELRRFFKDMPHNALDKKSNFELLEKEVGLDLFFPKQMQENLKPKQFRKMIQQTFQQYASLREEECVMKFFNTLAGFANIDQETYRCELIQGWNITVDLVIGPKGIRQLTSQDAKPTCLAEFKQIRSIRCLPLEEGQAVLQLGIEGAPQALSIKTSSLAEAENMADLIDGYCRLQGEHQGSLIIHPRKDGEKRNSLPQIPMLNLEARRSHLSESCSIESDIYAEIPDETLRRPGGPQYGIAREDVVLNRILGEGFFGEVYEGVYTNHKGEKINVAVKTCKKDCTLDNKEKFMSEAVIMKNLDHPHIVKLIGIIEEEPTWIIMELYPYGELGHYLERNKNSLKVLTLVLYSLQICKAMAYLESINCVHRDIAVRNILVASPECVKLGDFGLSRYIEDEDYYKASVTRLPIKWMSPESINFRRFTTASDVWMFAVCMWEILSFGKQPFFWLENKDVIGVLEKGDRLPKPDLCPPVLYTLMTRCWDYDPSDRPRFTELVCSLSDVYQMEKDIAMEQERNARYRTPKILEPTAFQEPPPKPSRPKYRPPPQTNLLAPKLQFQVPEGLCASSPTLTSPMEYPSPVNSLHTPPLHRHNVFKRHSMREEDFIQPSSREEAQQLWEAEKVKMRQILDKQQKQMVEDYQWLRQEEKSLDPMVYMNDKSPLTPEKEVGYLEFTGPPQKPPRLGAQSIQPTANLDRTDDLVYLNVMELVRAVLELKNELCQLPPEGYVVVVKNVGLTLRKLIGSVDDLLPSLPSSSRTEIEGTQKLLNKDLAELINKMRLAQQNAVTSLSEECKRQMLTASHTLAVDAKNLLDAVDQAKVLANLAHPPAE
measurement_name: IC50

For the compound CC(=O)Nc1ccc(C(=O)Nc2sc(Nc3ccccc3)nc2C(N)=O)cc1 [Compound 1] , the measured IC50 on PYK2 (Homo sapiens) was > 300 nM

* * *

target: DYRK1B (Homo sapiens)
Sequence (Q9Y463 whole entry): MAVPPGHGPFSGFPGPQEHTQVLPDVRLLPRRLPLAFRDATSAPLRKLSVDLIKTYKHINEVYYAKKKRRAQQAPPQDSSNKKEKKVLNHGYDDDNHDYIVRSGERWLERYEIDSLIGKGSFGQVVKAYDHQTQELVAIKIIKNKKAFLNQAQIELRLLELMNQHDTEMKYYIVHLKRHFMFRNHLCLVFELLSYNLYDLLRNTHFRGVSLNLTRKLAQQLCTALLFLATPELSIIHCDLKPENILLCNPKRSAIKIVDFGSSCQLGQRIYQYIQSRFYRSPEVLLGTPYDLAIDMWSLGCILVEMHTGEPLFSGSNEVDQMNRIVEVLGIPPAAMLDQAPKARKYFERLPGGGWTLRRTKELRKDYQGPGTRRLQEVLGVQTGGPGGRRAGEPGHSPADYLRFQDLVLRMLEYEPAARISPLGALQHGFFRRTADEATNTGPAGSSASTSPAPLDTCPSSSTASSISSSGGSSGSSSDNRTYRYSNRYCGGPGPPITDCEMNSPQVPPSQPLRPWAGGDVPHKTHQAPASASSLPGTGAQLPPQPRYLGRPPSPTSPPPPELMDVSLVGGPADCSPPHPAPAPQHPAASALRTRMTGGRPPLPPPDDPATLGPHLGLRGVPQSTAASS
measurement_name: IC50

For the compound CC(=O)Nc1ccc(C(=O)Nc2sc(Nc3ccccc3)nc2C(N)=O)cc1 , the measured IC50 on DYRK1B (Homo sapiens) was > 300 nM

* * *

target: IKKb (Homo sapiens, UniProt O14920)
Sequence (O14920 whole entry): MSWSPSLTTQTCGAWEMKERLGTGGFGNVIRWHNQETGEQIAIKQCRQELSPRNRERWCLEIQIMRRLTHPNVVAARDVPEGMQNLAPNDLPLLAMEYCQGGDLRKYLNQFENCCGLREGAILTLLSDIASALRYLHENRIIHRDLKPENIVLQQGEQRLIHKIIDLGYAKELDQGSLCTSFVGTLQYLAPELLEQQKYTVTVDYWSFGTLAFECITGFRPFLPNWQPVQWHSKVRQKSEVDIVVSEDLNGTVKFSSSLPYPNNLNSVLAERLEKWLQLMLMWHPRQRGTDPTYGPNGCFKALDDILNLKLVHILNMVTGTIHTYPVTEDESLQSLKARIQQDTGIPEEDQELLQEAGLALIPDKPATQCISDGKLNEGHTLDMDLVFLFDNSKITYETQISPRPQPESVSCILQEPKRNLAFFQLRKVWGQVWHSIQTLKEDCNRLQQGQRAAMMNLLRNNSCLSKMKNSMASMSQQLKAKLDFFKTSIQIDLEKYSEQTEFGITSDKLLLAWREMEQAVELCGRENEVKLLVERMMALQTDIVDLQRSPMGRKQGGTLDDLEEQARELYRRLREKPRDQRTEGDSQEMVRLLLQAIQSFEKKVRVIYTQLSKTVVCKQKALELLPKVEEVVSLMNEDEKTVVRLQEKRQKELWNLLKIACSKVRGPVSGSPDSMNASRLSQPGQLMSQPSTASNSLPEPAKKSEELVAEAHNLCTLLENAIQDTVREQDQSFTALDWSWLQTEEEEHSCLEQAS
measurement_name: IC50

Kindly note the recorded IC50 for CC(=O)Nc1ccc(C(=O)Nc2sc(Nc3ccccc3)nc2C(N)=O)cc1 , which is > 300 nM

* * *

Parameter log10(IC50): see the listing below.
target: human TNIK (N-terminal segment, TNIK_N) (Homo sapiens); construct: made in house; host or cells: Sf21 insect cells (baculovirus); experiment: TNIK kinase assay (mobility shift); format: biochemical; conditions: 25 μM ATP, 1 h at room temperature
Reminder: these figures are log10 of reported IC50, in nM before transformation.

Answered cases to consult:
CC(=O)Nc1ccc(C(=O)Nc2sc(Nc3ccc(N)cc3)nc2C(N)=O)cc1	1.38
COc1ccc(Nc2nc(C(N)=O)c(NC(=O)c3ccc(NCCN(C)C)cc3)s2)cc1	1.04
NC(=O)c1nc(Nc2ccccc2)sc1NC(=O)c1ccc(F)cc1	1.23
Cc1ccc(Nc2nc(C(N)=O)c(NC(=O)c3ccccc3Cl)s2)cc1	3.23
COc1ccc(Nc2nc(C(N)=O)c(NC(=O)c3ccc(N(S(C)(=O)=O)S(C)(=O)=O)cc3)s2)cc1	0.78

Kindly note the recorded log10(IC50) for Cc1ccc(C(=O)Nc2sc(Nc3ccccc3)nc2C(N)=O)cc1 , which is 0.78

Kindly note the recorded log10(IC50) for COc1ccc(C(=O)Nc2sc(Nc3ccc(CO)cc3)nc2C(N)=O)cc1 , which is 0.78

* * *

biological target: human TNIK (N-terminal segment, TNIK_N) (Homo sapiens, UniProt Q9UKE5); construct: made in house; host or cells: Sf21 insect cells (baculovirus); test: TNIK kinase assay (mobility shift); format: biochemical; conditions: 25 μM ATP, 1 h at room temperature
Sequence (Q9UKE5 1-314): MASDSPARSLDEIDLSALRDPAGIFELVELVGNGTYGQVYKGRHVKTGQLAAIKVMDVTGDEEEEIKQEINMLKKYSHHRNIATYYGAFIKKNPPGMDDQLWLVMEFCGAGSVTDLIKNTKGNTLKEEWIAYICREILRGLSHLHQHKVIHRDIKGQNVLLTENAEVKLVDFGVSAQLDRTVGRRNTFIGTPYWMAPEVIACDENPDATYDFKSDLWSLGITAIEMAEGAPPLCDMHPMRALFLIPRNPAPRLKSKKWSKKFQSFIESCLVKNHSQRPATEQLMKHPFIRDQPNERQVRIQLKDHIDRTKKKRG
measurement_name: IC50 (nM)
// note: answer is a bare numeric in nM

Answered cases to consult:
CCNc1nc(C(N)=O)c(NC(=O)c2cc(-c3ccccc3)nc3c(C)cccc23)s1 [Compound 17]	3100
COc1ccc(Nc2nc(C(N)=O)c(NC(=O)c3ccc(N4CCN(C)CC4)cc3)s2)cc1 [Compound A22]	15
COc1ccc(Nc2nc(C(N)=O)c(NC(=O)c3ccc(OCCN4CCCC4)cc3)s2)cc1 [Compound A45]	22
COc1ccc(C(=O)Nc2sc(Nc3ccccc3)nc2C(N)=O)cc1 [Compound 4]	10
COc1ccc(C(=O)Nc2sc(Nc3ccnc(F)c3)nc2C(N)=O)cc1 [Compound A92]	3

Kindly note the recorded IC50 for COc1ccc(Nc2nc(C(N)=O)c(NC(=O)c3ccc(NCCN4CCOCC4)cc3)s2)cc1 [Compound A27] , which is 9

Kindly note the recorded IC50 for COc1ccc(Nc2nc(C(N)=O)c(NC(=O)c3ccc(CN4CCN(C)CC4)cc3)s2)cc1 [Compound A44] , which is 11

Kindly note the recorded IC50 for NC(=O)c1nc(Nc2ccccc2)sc1NC(=O)CC1CCCC1 [Compound 8] , which is 130
